Procedure Details: Pharmacokinetic test in Balb/c mice
Type: in vivo
Experimental Parameters: mouse, whole blood (dried blood spots); female Balb/c mice, PO, 10 mg/kg, DBS samples
Assay Metric: AUC(0-t) (µg·h/mL)
Give the number; µg·h/mL is assumed, so skip it.

Exam item: Would you mind telling me what AUC(0-t) value was observed for Cc1ccc2c(Nc3cccc(Cl)c3F)nccc2c1NC(=O)c1cccc2c(N)ncnc12 ?
Marked response: 172

====

Test system: human melanoma cell A375 (BRAF-V600E mutation)
Procedure Details: Cancer cell proliferation inhibition assay, A375
Assay type: cell-based
Experimental Parameters: A-375, 72 h incubation, Cell Titer Glo
The following compounds are shown together with reported IC50 values.
# number only, unit nM dropped from output

Exam item: What measured IC50 goes with Cc1ccc2c(Nc3cc(Br)ccc3F)nccc2c1NC(=O)c1cccc2c(N)ncnc12 [Compound 91] ?
Marked response: 87.1

Exam item: Consider the compound Cc1ccc2c(Nc3ccc(F)cc3F)nccc2c1NC(=O)c1cc(F)cc2c(N)ncnc12 [Compound 85] and give its measured IC50.
Marked response: 148

Exam item: Any idea what IC50 was measured for Cc1ccc2c(Nc3cccc(Cl)c3F)nccc2c1NC(=O)c1cc(OCCO)cc2c(N)ncnc12 [Compound 86] ?
Marked response: 60.6

Exam item: Which IC50 is listed for Cc1ccc2c(Nc3ccc(Cl)c(F)c3F)nccc2c1NC(=O)c1cnc2c(N)ncnn12 [Compound 70] ?
Marked response: 190

Exam item: Given the compound Cc1ccc2c(Nc3cc(Cl)ccc3F)nccc2c1NC(=O)c1cc(F)cc2c(N)ncnc12 [Compound 84] , what is its reported IC50?
Marked response: 165
